- System: diarrheagenic Escherichia coli CCUG 38077 (EAEC)
- assay_explanation: Chromatogram binding assay of 35S-labeled bacteria to glycosphingolipids on thin-layer plates
- protocol_conditions: thin-layer chromatograms, TLC overlay
property_label: Binding of strain CCUG 38077 to glycosphingolipids and neoglycolipids, in words

CCCCCCCCCCCCCCCCc1ccc(NC[C@@H](O)[C@@H](O[C@H]2O[C@H](CO)[C@@H](O)[C@H](O)[C@@H]2O)[C@H](O)[C@H](O)CO[C@H]2O[C@H](CO)[C@@H](O)[C@H](O)[C@@H]2O)cc1 [Manα3(Manα6)Man(red)-HDA]: had binding activity
CCCCCCCCCCCCCCCCc1ccc(NC[C@H](O)[C@@H](O)[C@H](O[C@@H]2O[C@H](CO)[C@H](O)[C@H](O[C@@H]3O[C@H](CO)[C@@H](O[C@@H]4O[C@H](CO)[C@H](O)[C@H](O[C@@H]5O[C@H](CO)[C@@H](O)[C@H](O)[C@H]5NC(C)=O)[C@H]4O)[C@H](O)[C@H]3NC(C)=O)[C@H]2O)[C@H](O)CO)cc1 [GlcNAcβ3Galβ4GlcNAcβ3Galβ4Glc(red)-HDA]: had binding activity
